- Assay target: PIP4K 2A (Homo sapiens)
- Sequence (P48426 whole entry): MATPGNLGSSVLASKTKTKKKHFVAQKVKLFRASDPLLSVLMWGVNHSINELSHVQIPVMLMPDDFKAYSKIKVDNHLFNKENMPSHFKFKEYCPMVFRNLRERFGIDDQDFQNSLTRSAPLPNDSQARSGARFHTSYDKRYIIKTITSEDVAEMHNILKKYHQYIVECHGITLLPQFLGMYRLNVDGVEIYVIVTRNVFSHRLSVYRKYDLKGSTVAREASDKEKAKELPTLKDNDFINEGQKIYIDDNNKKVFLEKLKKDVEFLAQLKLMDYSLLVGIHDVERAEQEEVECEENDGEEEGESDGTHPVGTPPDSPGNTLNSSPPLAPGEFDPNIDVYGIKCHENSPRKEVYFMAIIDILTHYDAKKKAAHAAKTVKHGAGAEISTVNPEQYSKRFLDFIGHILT
- Protocol: ADP-glo kinase assay PIP4K 2A
- Assay type: biochemical
- Parameters: 4 nM PIP4K2A (full length protein, SignalChem); purchased SignalChem
- Condition: compounds listed under IC50 bin headings
pIC50: −log10 of the molar value.
Listing: pIC50 of selected compounds
Measurement label: pIC50

| Compound | Assay target | Measured |
| --- | --- | --- |
| COC(=O)N1CCOc2ncc(Nc3cc4c(cn3)-c3cc(F)c(N5CCCC5=O)cc3OC4C)cc21 (stereo not shown) [Example 150] | PIP4K 2A (Homo sapiens) | ≥ 9.00 |
| CC1Oc2cc(N3CCCC3=O)c(F)cc2-c2cnc(Nc3cncc(N4CCNC4=O)c3)cc21 (stereo not shown) [Example 151] | PIP4K 2A (Homo sapiens) | 8.00 to 9.00 |
| CC1Oc2cc(N3CCCC3=O)c(F)cc2-c2cnc(Nc3cnc4c(c3)N3C(=O)CC[C@@H]3CO4)cc21 (stereo partly shown) [Example 181] | PIP4K 2A (Homo sapiens) | 8.00 to 9.00 |
| CC1Oc2cc(N3CCCC3=O)ccc2-c2cnc(Nc3cncc(NC(=O)c4cnc5ccccn45)c3)cc21 (stereo not shown) [Example 143] | PIP4K 2A (Homo sapiens) | ≥ 9.00 |
| CC1Oc2cc(N3CCCC3=O)ccc2-c2cnc(Nc3cnc4c(c3)N(C(=O)C3CC3)CCO4)cc21 (stereo not shown) [Example 82] | PIP4K 2A (Homo sapiens) | ≥ 9.00 |
| CC1Oc2cc(N3CCCC3=O)ccc2-c2cnc(Nc3cncc(NC(=O)c4cccc5[nH]cnc45)c3)cc21 (stereo not shown) [Example 196] | PIP4K 2A (Homo sapiens) | 8.00 to 9.00 |
| CC(C)S(=O)(=O)N1CCOc2ncc(Nc3cc4c(cn3)-c3ccc(N5CCCC5=O)cc3OC4)cc21 [Example 79] | PIP4K 2A (Homo sapiens) | 8.00 to 9.00 |
